Reference source: patent US10538516B2

- Tgt: GAβ-dependent amyloid fibril formation (Human Aβ1-40 + GM1-containing liposome) (Homo sapiens, UniProt P05067)
- Construct: Human Aβ1-40 (cat. #4307-v, prepared by Peptide Institute); purchased Peptide Institute 4307-v
- Sequence (P05067 672-711 limits assumed): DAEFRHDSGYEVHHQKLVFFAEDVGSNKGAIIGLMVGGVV
- Protocol: Thioflavin T (ThT) assay of GAβ-dependent amyloid fibril formation (Aβ1-40 with GM1-containing liposome)
- Assay type: biochemical
- Cond: @25 μM; read-out: ThT Inhibitory activity (% inhibition)
Metric: inhibition at 25 µM (%)
Respond numerically; units are % and should not be typed.

Consider the reported inhibition at 25 µM for these molecules:
| Structure smiles | Value units | inhibition at 25 µM |
| --- | --- | --- |
| O=C(N[C@@H](CO)c1nc(-c2ccccc2C(F)(F)F)no1)c1ccc(F)cc1 | % | 73 |
| C[C@@H](O)[C@H](NC(=O)c1ccc(Cl)cc1)c1nc(-c2ccc(OC(F)(F)F)cc2)no1 | % | 80 |
| O=C(N[C@@H](CO)c1nc(-c2ccc(C(F)(F)F)cc2)no1)c1ccc(N2CCCC2)cc1 | % | 81 |

Noted for O=C(N[C@@H](CO)c1nc(-c2ccc(F)cc2)no1)c1ccc(F)cc1 : its inhibition at 25 µM reads 91
